Biological target: Apoptosis regulator Bcl-2 (Homo sapiens, UniProt P10415)
Sequence (P10415 whole entry): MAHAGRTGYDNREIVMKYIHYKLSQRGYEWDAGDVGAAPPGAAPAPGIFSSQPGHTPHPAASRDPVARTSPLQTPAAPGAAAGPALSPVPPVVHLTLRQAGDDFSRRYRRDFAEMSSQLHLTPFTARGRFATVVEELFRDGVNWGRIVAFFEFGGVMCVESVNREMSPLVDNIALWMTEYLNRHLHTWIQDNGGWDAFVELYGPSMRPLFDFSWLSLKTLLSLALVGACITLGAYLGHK
Test: Displacement of FITC-BIM from recombinant human Bcl-2 expressed in Escherichia coli after 30 mins by fluorescence polarization assay
ASSAY METRIC: Ki (µM)
Write the answer as a number in µM, unit excluded.

INSERT INTO assay_data (smiles_record, assay_metric, display_unit, value_observed) VALUES
  ('CC1=NN(c2nc(-c3ccccc3)cs2)C(=O)/C1=C/C(c1ccccc1)c1ccccc1', 'Ki', 'µM', 1.6),
  ('CC1=NN(c2cc(O)cc(-c3ccc(N(C)C)cc3)c2)C(=O)/C1=N\Nc1ccc2ccccc2c1', 'Ki', 'µM', 33.9),
  ('CC1=NN(c2nc(-c3ccccc3)cs2)C(=O)/C1=C/c1ccccc1', 'Ki', 'µM', 1.9),
  ('CC1=NN(c2nc(-c3ccccc3)cs2)C(=O)/C1=C/c1ccc(-c2ccccc2)cc1', 'Ki', 'µM', 1.6);

// switching to the query molecule
Ki reported for this molecule "CC1=NN(c2nc(-c3ccccc3)cs2)C(=O)/C1=C/c1ccc2ccccc2c1" : 2

====

Target: Bcl-2-like protein 1 (Homo sapiens, UniProt Q07817)
Sequence (Q07817 whole entry): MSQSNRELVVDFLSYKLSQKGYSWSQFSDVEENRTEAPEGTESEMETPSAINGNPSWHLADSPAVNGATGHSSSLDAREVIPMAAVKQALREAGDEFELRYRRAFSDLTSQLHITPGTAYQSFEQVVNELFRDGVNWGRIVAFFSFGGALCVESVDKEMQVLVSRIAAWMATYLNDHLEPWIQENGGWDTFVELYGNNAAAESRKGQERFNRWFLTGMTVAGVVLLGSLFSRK
Experiment: Displacement of FITC-BIM from recombinant human Bcl-XL expressed in Escherichia coli after 30 mins by fluorescence polarization assay
Entries annotated with measured pKi
Bear in mind: pKi is minus log10 of a mol/L concentration; give just that figure.

Solved cases (3 shown):
INSERT INTO results (smiles_record, experimental_target, value_observed) VALUES
  ('CCOc1ccccc1N/N=C1\C(=O)N(c2cc(O)cc(-c3ccncc3)c2)N=C1C', 'Bcl-2-like protein 1 (Homo sapiens, UniProt Q07817)', 4.51),
  ('CC1=NN(c2nc(-c3ccccc3)cs2)C(=O)/C1=C/c1ccc2ccccc2c1', 'Bcl-2-like protein 1 (Homo sapiens, UniProt Q07817)', 5.47),
  ('CCOc1ccccc1N/N=C1\C(=O)N(c2cc(O)cc(-c3ccc(C(C)C)cc3)c2)N=C1C', 'Bcl-2-like protein 1 (Homo sapiens, UniProt Q07817)', 4.81);

pKi reported for this compound "CC1=NN(c2nc(-c3ccccc3)cs2)C(=O)/C1=C/c1ccccc1" : 5.62

====

Entries annotated with measured EC50
System: MEF
Assay: Induction of apoptosis in Bad-deficient MEF assessed as appearance of fragmented nuclei and cell membrane blebbing after 24 hrs by DAPI staining
Format: functional, cell-based
Details: Mus musculus
Write the answer as a number in nM, unit excluded.

INSERT INTO measurements (smiles_record, value_observed) VALUES
  ('CCOc1ccccc1N/N=C1/C(=O)N(c2nc(-c3ccccc3)cs2)N=C1C', 3500);

// switching to the query molecule
The recorded EC50 with MEF for "CCOc1ccccc1N/N=C1\C(=O)N(c2cc(O)cc(-c3ccc(N(C)C)cc3)c2)N=C1C" was 800

====

System: MEF
Assay: Induction of apoptosis in Bax-deficient MEF assessed as appearance of fragmented nuclei and cell membrane blebbing at 15 uM after 24 hrs by DAPI staining
Format: functional, cell-based
Conditions: Mus musculus
Active and inactive are the calls of the source. The calls are words filed in the database; no cut-off is given here.
Reply using exactly one outcome from true (1) (active), false (0) (inactive)

Solved cases below.
INSERT INTO results (smiles_record, assigned_category) VALUES
  ('CC1=NN(c2nc(-c3ccccc3)cs2)C(=O)/C1=C/c1ccccc1', 'true (1)'),
  ('CC1=NN(c2cc(O)cc(-c3ccc(N(C)C)cc3)c2)C(=O)/C1=N\Nc1ccc2ccccc2c1', 'false (0)'),
  ('CC1=NN(c2nc(-c3ccccc3)cs2)C(=O)/C1=C/c1ccc2ccccc2c1', 'true (1)'),
  ('CCOc1ccccc1N/N=C1\C(=O)N(c2cccc(-c3ccc(N(C)C)cc3)c2)N=C1C', 'true (1)'),
  ('CC1=NN(c2nc(-c3ccccc3)cs2)C(=O)/C1=C/c1ncc[nH]1', 'true (1)');

Check the results log: what was the call for "CCOc1ccccc1N/N=C1\C(=O)N(c2cc(O)cc(-c3ccncc3)c2)N=C1C" ? false (0)

Check the results log: what was the call for "CC1=NN(c2nc(-c3ccccc3)cs2)C(=O)/C1=C/c1ccc(-c2ccccc2)cc1" ? true (1)

Check the results log: what was the call for "CCOc1ccccc1N/N=C1\C(=O)N(c2cc(O)cc(-c3ccc(C(C)C)cc3)c2)N=C1C" ? true (1)

Check the results log: what was the call for "CCOc1ccccc1N/N=C1\C(=O)N(c2cc(O)cc(-c3cccc(N)c3)c2)N=C1C" ? true (1)

Check the results log: what was the call for "CC1=NN(c2nc(-c3ccccc3)cs2)C(=O)/C1=C/C(c1ccccc1)c1ccccc1" ? true (1)

Check the results log: what was the call for "CCOc1ccccc1N/N=C1\C(=O)N(c2cc(O)cc(-c3ccccc3)c2)N=C1C" ? false (0)

====

Entries annotated with measured pKi
Biological target: Bcl-2-like protein 1 (Homo sapiens, UniProt Q07817)
Experiment: Displacement of FITC-BIM from recombinant human Bcl-XL expressed in Escherichia coli after 30 mins by fluorescence polarization assay
Bear in mind: pKi is minus log10 of a mol/L concentration; give just that figure.

Solved cases (2 shown):
INSERT INTO measurements (smiles_record, assay_metric, value_observed) VALUES
  ('CC1=NN(c2cc(O)cc(-c3ccc(N(C)C)cc3)c2)C(=O)/C1=N\Nc1ccc2ccccc2c1', 'pKi', 5.47),
  ('CC1=NN(c2nc(-c3ccccc3)cs2)C(=O)/C1=C/c1ccc(-c2ccccc2)cc1', 'pKi', 5.51);

pKi reported for this compound "CC1=NN(c2nc(-c3ccccc3)cs2)C(=O)/C1=C/c1ncc[nH]1" : 5.17

====

Biological target: Apoptosis regulator Bcl-2 (Homo sapiens, UniProt P10415)
Test: Displacement of FITC-BIM from recombinant human Bcl-2 expressed in Escherichia coli after 30 mins by fluorescence polarization assay
Entries annotated with measured Ki
Write the answer as a number in µM, unit excluded.

INSERT INTO results (smiles_record, display_unit, value_observed) VALUES
  ('CC1=NN(c2nc(-c3ccccc3)cs2)C(=O)/C1=C/c1ncc[nH]1', 'µM', 2);

Ki reported for this compound "CCOc1ccccc1N/N=C1\C(=O)N(c2cc(O)cc(-c3ccc(N(C)C)cc3)c2)N=C1C" : 12

Ki reported for this compound "CCOc1ccccc1N/N=C1\C(=O)N(c2cc(O)cc(-c3ccc(C(C)C)cc3)c2)N=C1C" : 1.9

Ki reported for this compound "CCOc1ccccc1N/N=C1\C(=O)N(c2cccc(-c3ccc(N(C)C)cc3)c2)N=C1C" : 4.2

Ki reported for this compound "CCOc1ccccc1N/N=C1/C(=O)N(c2nc(-c3ccccc3)cs2)N=C1C" : 3

====

Biological target: Bcl-2-like protein 1 (Homo sapiens, UniProt Q07817)
Experiment: Displacement of FITC-BIM from recombinant human Bcl-XL expressed in Escherichia coli after 30 mins by fluorescence polarization assay
ASSAY METRIC: Ki

Ki reported for this compound "CC1=NN(c2nc(-c3ccccc3)cs2)C(=O)/C1=C/C(c1ccccc1)c1ccccc1" : > 100 µM

Ki reported for this compound CCOc1ccccc1C(=O)C(=O)C1C(=O)N(c2nc(-c3ccccc3)cs2)N=C1C (stereo not given) : > 100 µM

Ki reported for this compound "CCOc1ccccc1N/N=C1\C(=O)N(c2cc(O)cc(-c3ccc(N(C)C)cc3)c2)N=C1C" : > 100 µM

Ki reported for this compound "CCOc1ccccc1N/N=C1\C(=O)N(c2cc(O)cc(-c3cccc(N)c3)c2)N=C1C" : > 100 µM

Ki reported for this compound "CCOc1ccccc1N/N=C1\C(=O)N(c2cc(O)cc(-c3cccs3)c2)N=C1C" : > 100 µM
